# procedure.details: Single oral dose plasma pharmacokinetics in fasted and fed healthy subjects (food effect, ethnicity)
# Format: in vivo, human
# conditions.used: both sexes, human, plasma, po, 2000 mg, 2000 mg oral, Fasted, Japanese; read-out: t½, GeoMean (converted)
readout.name: half-life (h)
Give your result in h as a bare value.

Report measured half-life; entry is CNC(=O)c1ccc(NCC#Cc2cc3c(N[C@@H]4CCN(C)C[C@@H]4F)cccc3n2CC(F)(F)F)c(OC)c1 [Compound 1]
17.4

---

# procedure.details: Single oral dose plasma pharmacokinetics in fasted and fed healthy subjects (food effect, ethnicity)
# Assay type: in vivo, human
# conditions.used: both sexes, human, plasma, po, 1000 mg, 1000 mg oral, Fasted (Part 1); read-out: AUC0-inf, GeoMean
readout.name: AUC(0-inf)

Entry CNC(=O)c1ccc(NCC#Cc2cc3c(N[C@@H]4CCN(C)C[C@@H]4F)cccc3n2CC(F)(F)F)c(OC)c1 needs its AUC(0-inf) filled in; supply it.
150 µg·h/mL

---

# procedure.details: Single oral dose plasma pharmacokinetics in fasted and fed healthy subjects (food effect, ethnicity)
# Type: in vivo, human
# conditions.used: both sexes, human, plasma, po, 1000 mg, 1000 mg oral, Fed (Part 1); read-out: AUC0-24, GeoMean
readout.name: AUC(0-t) (µg·h/mL)
// units = µg·h/mL; emit number, no label

Using the record for CNC(=O)c1ccc(NCC#Cc2cc3c(N[C@@H]4CCN(C)C[C@@H]4F)cccc3n2CC(F)(F)F)c(OC)c1 , state its measured AUC(0-t).
119

---

# procedure.details: Single oral dose plasma pharmacokinetics in fasted and fed healthy subjects (food effect, ethnicity)
# Type: in vivo, human
# conditions.used: both sexes, human, plasma, po, 2000 mg, 2000 mg oral, Fasted, Caucasian/Non-Asian; read-out: AUC0-last, GeoMean
readout.name: AUC(0-t) (µg·h/mL)
State just the number; it will be interpreted in µg·h/mL.

Identify AUC(0-t) associated with the compound CNC(=O)c1ccc(NCC#Cc2cc3c(N[C@@H]4CCN(C)C[C@@H]4F)cccc3n2CC(F)(F)F)c(OC)c1 [Compound 1]
254

---

# procedure.details: Single oral dose plasma pharmacokinetics in fasted and fed healthy subjects (food effect, ethnicity)
# Type: in vivo, human
# conditions.used: both sexes, human, plasma, po, 2000 mg, 2000 mg oral, Fed, Caucasian/Non-Asian; read-out: AUC0-24, GeoMean
readout.name: AUC(0-t) (µg·h/mL)
Enter your answer as a number in µg·h/mL; do not include the unit.

Please indicate AUC(0-t) recorded for CNC(=O)c1ccc(NCC#Cc2cc3c(N[C@@H]4CCN(C)C[C@@H]4F)cccc3n2CC(F)(F)F)c(OC)c1 [Compound 1]
250

---

# procedure.details: Single oral dose plasma pharmacokinetics in fasted and fed healthy subjects (food effect, ethnicity)
# Type: in vivo, human
# conditions.used: both sexes, human, plasma, po, 2000 mg, 2000 mg oral, Fed, Caucasian/Non-Asian; read-out: AUC0-96, GeoMean
readout.name: AUC(0-t) (µg·h/mL)
Give your result in µg·h/mL as a bare value.

Fill in reported AUC(0-t) for this entry: CNC(=O)c1ccc(NCC#Cc2cc3c(N[C@@H]4CCN(C)C[C@@H]4F)cccc3n2CC(F)(F)F)c(OC)c1 [Compound 1]
448

---

# procedure.details: Pharmacokinetic analysis of patient plasma (LC/MS/MS, noncompartmental analysis)
# Assay type: in vivo
# conditions.used: human, plasma, oral; patients, Day 15; read-out: Median half-life (converted)
readout.name: half-life (h)
I only need the number, in h, no unit after it.

// fetch half-life given entry CNC(=O)c1ccc(NCC#Cc2cc3c(N[C@@H]4CCN(C)C[C@@H]4F)cccc3n2CC(F)(F)F)c(OC)c1 [Compound 1]
19

---

# procedure.details: Single oral dose plasma pharmacokinetics in fasted and fed healthy subjects (food effect, ethnicity)
# Assay type: in vivo, human
# conditions.used: both sexes, human, plasma, po, 2000 mg, 2000 mg oral, Fed, Caucasian/Non-Asian; read-out: Tmax, Median
readout.name: Tmax (h)
Report the figure in h without appending any unit label.

Provide measured Tmax value, entry: CNC(=O)c1ccc(NCC#Cc2cc3c(N[C@@H]4CCN(C)C[C@@H]4F)cccc3n2CC(F)(F)F)c(OC)c1
4.03

---

# procedure.details: Urine pharmacokinetics in healthy subjects (Ae, CLR, fe)
# Assay type: in vivo, human
# conditions.used: both sexes, human, urine, oral, 2000 mg, Caucasian/non-Asian, fed; read-out: renal clearance (CLR), geometric mean (converted)
readout.name: CL renal (mL/min)
A number alone suffices; assume mL/min.

Given the compound CNC(=O)c1ccc(NCC#Cc2cc3c(N[C@@H]4CCN(C)C[C@@H]4F)cccc3n2CC(F)(F)F)c(OC)c1 [Compound 1] , write its reported CL renal.
2.73
